Item-by-item account of MRT
- ASSAY DETAILS: Pharmacokinetic parameters following intravenous and oral administration in rats
- Assay type: in vivo, male Wistar rats
- CONDITION NOTES: male, Wistar, rat, plasma, po, oral administration (p.o.), read-out: MRT
Structures can show the parent of a compound that is named as a salt.
ENDPOINT LABEL: MRT (h)

MOLECULE	ENDPOINT LABEL	DISPLAY UNIT	MEASURED RESULT
CCCN1CCN(c2ccc(-c3ccc(Cl)cc3N3CCCC(n4ncc(C(=O)O)c4C(F)F)C3)cc2)CC1 (single isomer, unassigned) [Example 4, hydrochloride]	MRT	h	5.91
CC(C)CN1CCN(c2ccc(-c3ccc(Cl)cc3N3CCCC(n4ncc(C(=O)O)c4C(F)F)C3)cc2)CC1 (single isomer, unassigned) [Example 1, hydrochloride]	MRT	h	6.28
CC(C)CN1CCN(c2ccc(-c3ccc(Cl)cc3N3CCCC(n4ncc(C(=O)O)c4C(F)(F)F)C3)cc2)CC1 (single isomer, unassigned) [Example 9, hydrochloride]	MRT	h	8.51

---

- ASSAY SYSTEM: recombinant guanylate cyclase reporter cell line (Rattus norvegicus, UniProt P20595)
- Construct: expressed in transfected cells; CHO by own knowledge of the cited Wunder et al. 2005
- Sequence (P20595 1-619): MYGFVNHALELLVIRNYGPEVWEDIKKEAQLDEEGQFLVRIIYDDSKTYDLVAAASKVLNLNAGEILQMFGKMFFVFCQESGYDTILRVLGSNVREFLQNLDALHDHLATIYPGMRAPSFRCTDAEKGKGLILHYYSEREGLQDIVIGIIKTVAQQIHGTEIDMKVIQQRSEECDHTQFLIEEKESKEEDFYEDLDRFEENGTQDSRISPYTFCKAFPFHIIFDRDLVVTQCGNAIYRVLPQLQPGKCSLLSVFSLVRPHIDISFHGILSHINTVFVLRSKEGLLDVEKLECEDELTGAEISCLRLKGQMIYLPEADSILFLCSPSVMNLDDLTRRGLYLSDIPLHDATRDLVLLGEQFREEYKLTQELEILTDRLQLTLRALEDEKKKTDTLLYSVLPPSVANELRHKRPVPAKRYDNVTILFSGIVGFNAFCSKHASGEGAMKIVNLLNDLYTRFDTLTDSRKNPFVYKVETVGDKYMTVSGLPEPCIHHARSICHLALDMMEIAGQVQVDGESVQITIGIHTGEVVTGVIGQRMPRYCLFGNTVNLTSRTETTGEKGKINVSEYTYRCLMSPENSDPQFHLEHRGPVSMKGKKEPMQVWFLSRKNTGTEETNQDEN
- Sequence (P19686 1-690 partner): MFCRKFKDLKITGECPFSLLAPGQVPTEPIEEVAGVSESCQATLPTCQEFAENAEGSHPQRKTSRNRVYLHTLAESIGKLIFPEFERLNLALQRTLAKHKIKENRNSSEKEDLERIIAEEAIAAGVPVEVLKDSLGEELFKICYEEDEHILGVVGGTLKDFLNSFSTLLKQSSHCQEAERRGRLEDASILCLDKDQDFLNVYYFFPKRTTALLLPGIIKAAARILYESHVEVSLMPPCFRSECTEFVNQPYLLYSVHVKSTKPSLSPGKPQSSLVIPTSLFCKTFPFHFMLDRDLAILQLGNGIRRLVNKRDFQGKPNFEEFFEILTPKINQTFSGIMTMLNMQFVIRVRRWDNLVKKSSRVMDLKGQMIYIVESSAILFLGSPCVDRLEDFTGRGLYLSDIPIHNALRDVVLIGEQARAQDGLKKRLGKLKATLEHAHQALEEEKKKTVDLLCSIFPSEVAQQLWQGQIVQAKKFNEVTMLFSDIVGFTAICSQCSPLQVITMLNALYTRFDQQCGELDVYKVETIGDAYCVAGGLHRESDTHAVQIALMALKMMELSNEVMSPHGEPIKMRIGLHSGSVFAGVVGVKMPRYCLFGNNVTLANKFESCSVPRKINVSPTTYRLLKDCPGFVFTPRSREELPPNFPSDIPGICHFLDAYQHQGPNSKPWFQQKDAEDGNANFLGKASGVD
- ASSAY DETAILS: Effect on a recombinant guanylate cyclase reporter cell line
- Type: cell-based
Structures can show the parent of a compound that is named as a salt.
ENDPOINT LABEL: MEC (minimum effective concentration) (nM)

COMPOUND	MEASURED RESULT
O=C(O)c1cnn(C2CCCN(c3cc(Cl)ccc3-c3ccc(N4CCN(CC(F)(F)F)CC4)cc3)C2)c1C(F)F (single isomer, unassigned) [Example 7]	1.6
O=C(O)c1cnn(C2CCCN(c3cc(Cl)ccc3-c3ccc(N4CCN(CC(F)(F)F)CC4)cc3)C2)c1C(F)F (single isomer, unassigned) [Example 6]	1.6
O=C(O)c1cnn(C2CCCN(c3cc(Cl)ccc3-c3ccc(N4CCN(CC(F)(F)F)CC4)cc3)C2)c1C(F)(F)F (single isomer, unassigned)	0.6
CCCN1CCN(c2ccc(-c3ccc(Cl)cc3N3CCCC(n4ncc(C(=O)O)c4C(F)F)C3)cc2)CC1 (single isomer, unassigned) [Example 4, hydrochloride]	0.3
